# assayTarget: pseudo-kinase domain (JH2, amino-acids 536-812 with 3 surface mutations W659A, W777A, F794H) of human V617F mutant JAK2 (Homo sapiens, UniProt O60674, F794H/V617F/W659A/W777A)
# Construct: pseudo-kinase domain (JH2, amino-acids 536-812 with 3 surface mutations W659A, W777A, F794H); His (C); Avi (biotinylated) (C)
# Sequence (O60674 536-812 V617F/W659A/W777A/F794H): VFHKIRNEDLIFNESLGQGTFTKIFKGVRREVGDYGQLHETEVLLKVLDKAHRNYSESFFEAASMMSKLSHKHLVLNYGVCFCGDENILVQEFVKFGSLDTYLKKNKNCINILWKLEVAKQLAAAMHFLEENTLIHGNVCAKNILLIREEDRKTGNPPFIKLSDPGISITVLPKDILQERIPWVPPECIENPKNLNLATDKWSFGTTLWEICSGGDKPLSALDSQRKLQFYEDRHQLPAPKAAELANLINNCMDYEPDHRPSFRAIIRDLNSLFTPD
# experimentalProtocol: JAK2 LanthaScreen JH2-V617F Binding Assay
# measurementSetup: JAK2 JH2-V617F (0.26 nM), 50 nM Fluorescent JAK2-JH2 Tracer, 1 hour at 25° C.; read-out: JH2 BIND V617F
pIC50: −log10 of the molar value.
In this section we review reported pIC50 values for a set of molecules.
endpoint: pIC50

>>> endpointresult("CC(=O)N1CCN(c2cc3sc(-c4c(-c5cnn(CC(C)(C)O)c5)[nH]c5ncc6c(c45)n(C(C)C)c(=O)n6C)cc3cn2)CC1")
"7.00 to 8.00"
>>> endpointresult("Cn1c(=O)n(C2CCCC2)c2c3c(-c4ccccc4)c(-c4ccc(CN5CCC(S(C)(=O)=O)CC5)cc4)[nH]c3ncc21")
"≥ 8.00"
>>> endpointresult("COc1nn(C)cc1-c1[nH]c2ncc3c(c2c1-c1ccc2c(cnn2C)c1)n([C@H]1CC[C@@H](CC#N)CC1)c(=O)n3C")
"≥ 8.00"
>>> endpointresult("Cn1cc(-c2cc3c(ncc4c3[nH]c(=O)n4C)[nH]2)cn1")
"< 6.00"
>>> endpointresult("CC(C)n1c(=O)n(C)c2cnc3[nH]c(-c4cnn(CC(C)(C)O)c4)c(-c4ccc5c(cnn5C)c4)c3c21")
"≥ 8.00"
>>> endpointresult("COC1CC=C(c2c(-c3ccc(CN4CCC(S(C)(=O)=O)CC4)cc3)[nH]c3ncc4c(c23)n(C2CCCC2)c(=O)n4C)CC1 (centres unmarked)")
"≥ 8.00"
>>> endpointresult("Cn1c(=O)n(C2CCCCC2)c2c3cc(-c4cnn(CS(C)(=O)=O)c4)[nH]c3ncc21")
"6.30 to 7.00"
>>> endpointresult("CC(C)n1c(=O)n(C)c2cnc3[nH]c(-c4cnn(CC(C)(C)O)c4)c(-c4ccc5cnccc5c4)c3c21")
"7.00 to 8.00"
>>> endpointresult("Cn1c(=O)n(C2CCOCC2)c2c3c(-c4ccc(C5(N6CCOCC6)CC5)cc4)c(-c4cnn(CC(C)(C)O)c4)[nH]c3ncc21")
"≥ 8.00"
>>> endpointresult("CC(=O)N1CCN(c2ccc(-c3[nH]c4ncc5c(c4c3-c3ccc(C#N)cc3)n(C(C)C)c(=O)n5C)cc2)CC1")
"≥ 8.00"
>>> endpointresult("Cn1c(=O)n(C2CCCC2)c2c3c(-c4ccccc4)c(-c4cnn(CS(C)(=O)=O)c4)[nH]c3ncc21")
"≥ 8.00"
>>> endpointresult("CCN1CCN(c2ccc(-c3cc4c(ncc5c4n(CC(=O)N4CCCCC4)c(=O)n5C)[nH]3)cc2)CC1")
"< 6.00"
>>> endpointresult("Cn1ncc2cc(-c3c(-c4ccc(OC5CCOCC5)nc4)[nH]c4ncc5c(c34)n(C3CCCC3)c(=O)n5C)ccc21")
"7.00 to 8.00"
>>> endpointresult("[2H]C([2H])([2H])n1ncc2cc(-c3c(-c4cnn5cccnc45)[nH]c4ncc5c(c34)n(C3CCOCC3)c(=O)n5C)ccc21")
"≥ 8.00"
